Parameter: pIC50. Scope: all listed entries.
- target_under_test: Renin (Homo sapiens, UniProt P00797)
- Sequence (P00797 whole entry): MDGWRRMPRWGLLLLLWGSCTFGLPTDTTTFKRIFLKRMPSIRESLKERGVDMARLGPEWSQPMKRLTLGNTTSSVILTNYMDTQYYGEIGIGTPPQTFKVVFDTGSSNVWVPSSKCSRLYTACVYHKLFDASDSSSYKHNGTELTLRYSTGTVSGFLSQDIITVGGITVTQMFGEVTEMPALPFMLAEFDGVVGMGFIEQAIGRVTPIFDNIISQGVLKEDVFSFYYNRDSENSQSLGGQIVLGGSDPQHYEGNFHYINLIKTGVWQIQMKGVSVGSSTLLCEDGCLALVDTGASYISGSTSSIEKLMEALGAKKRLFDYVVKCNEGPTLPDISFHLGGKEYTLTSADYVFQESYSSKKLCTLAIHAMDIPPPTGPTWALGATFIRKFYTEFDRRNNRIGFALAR
- assay_details: In vitro inhibition of human plasma renin at PH 7.4
pIC50: −log10 of the molar value.
reported_endpoint: pIC50

compound	reported_endpoint	observed
C=CS(=O)(=O)[C@H]1[C@H](C(=O)N[C@@H](Cc2cscn2)C(=O)N[C@@H](CC2CCCCC2)[C@@H](O)[C@@H](O)CC(C)C)[C@H]1c1ccccc1	pIC50	7.77
CO[C@@H](CC(C)C)[C@H](O)[C@H](CC1CCCCC1)NC(=O)[C@H](Cc1cscn1)NC(=O)C(Cc1ccccc1)CS(=O)(=O)c1ccccc1 (some centres not stated)	pIC50	7.74
CC(C)C[C@H](O)[C@H](O)[C@H](CC1CCCCC1)NC(=O)[C@H](Cc1cscn1)NC(=O)[C@@H]1[C@@H](c2ccccc2)[C@H]1S(=O)(=O)C(C)C	pIC50	8.10
CC(C)C[C@H](O)[C@H](O)[C@H](CC1CCCCC1)NC(=O)[C@H](Cn1ccnc1)NC(=O)[C@H]1[C@H](c2ccccc2)[C@@H]1S(=O)(=O)C(C)C	pIC50	7.82
COCOCCS(=O)(=O)[C@H]1[C@H](C(=O)N[C@@H](Cc2cscn2)C(=O)N[C@@H](CC2CCCCC2)[C@@H](O)[C@@H](O)CC(C)C)[C@H]1c1ccccc1	pIC50	7.80
COCOCCS(=O)(=O)[C@@H]1[C@@H](C(=O)N[C@@H](Cc2cscn2)C(=O)N[C@@H](CC2CCCCC2)[C@@H](O)[C@@H](O)CC(C)C)[C@@H]1c1ccccc1	pIC50	7.48
CC(C)C[C@H](O)[C@H](O)[C@H](CC1CCCCC1)NC(=O)[C@H](Cc1cscn1)NC(=O)[C@@H]1[C@@H](c2ccccc2)[C@H]1S(C)(=O)=O	pIC50	7.64
CC(C)C[C@H](NC(=O)[C@@H]1[C@@H](c2ccccc2)[C@H]1S(=O)(=O)C(C)C)C(=O)N[C@@H](CC1CCCCC1)[C@@H](O)[C@@H](O)CC(C)C	pIC50	7.85
CC(C)C[C@H](O)[C@H](O)[C@H](CC1CCCCC1)NC(=O)[C@H](Cc1cscn1)NC(=O)[C@H]1[C@H](c2ccccc2)[C@@H]1S(=O)(=O)C(C)C	pIC50	7.07
CCCC[C@H](NC(=O)[C@@H]1[C@@H](c2ccccc2)[C@H]1S(=O)(=O)C(C)C)C(=O)N[C@@H](CC1CCCCC1)[C@@H](O)[C@@H](O)CC(C)C	pIC50	7.89
CC(C)C[C@H](O)[C@H](O)[C@H](CC1CCCCC1)NC(=O)[C@H](Cc1cscn1)NC(=O)[C@@H]1[C@@H](C2CCCCC2)[C@H]1S(=O)(=O)C(C)C	pIC50	7.82
CCCC[C@H](NC(=O)[C@H]1[C@H](c2ccccc2)[C@@H]1S(=O)(=O)C(C)C)C(=O)N[C@@H](CC1CCCCC1)[C@@H](O)[C@@H](O)CC(C)C	pIC50	6.80
